viability, T/C values for the compounds below.
system: NCI-H322M multicellular tumor spheroids, viability (% test/control); test: Anticancer human tumor NCI-H322M cell line growth inhibition; settings: second compound 31.6 µM; first compound 0.949 µM; active compounds read low;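 note: spheroids exposed to compound for seven days before readout; 100% = DMSO vehicle control wells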
MEASURE: viability, T/C (%)

• Cn1ncnc1[C@H]1c2n[nH]c(=O)c3cc(F)cc(c23)N[C@@H]1c1ccc(F)cc1 + Cn1nnc2c(C(N)=O)ncn2c1=O = 70.9
• O=C(c1cc(Cc2n[nH]c(=O)c3ccccc23)ccc1F)N1CCN(C(=O)C2CC2)CC1 + Cn1nnc2c(C(N)=O)ncn2c1=O = 86.1
• Cc1sc2c(c1C)C(c1ccc(Cl)cc1)=NC(CC(=O)Nc1ccc(O)cc1)c1nnc(C)n1-2 (centres undefined) + Cn1nnc2c(C(N)=O)ncn2c1=O = 91.2
• CNCc1ccc(-c2cc(-c3nc(-c4ccc(S(=O)(=O)C(C)C)cc4)cnc3N)on2)cc1 + Cn1nnc2c(C(N)=O)ncn2c1=O = 68.4

The reported numbers originate from PubChem BioAssay AID1845211.
